Listed next: entries and their corresponding koff.
# Assay target: T1, c-erbB-2 ECD with a Ser-Gly-His6 C-terminal fusion (UniProt P04626 23-652)
# T1 construct: extracellular domain; Expressed from CHO cells, IMAC purified; coupled to a CM5 chip, coated on plates, or biotinylated with NHS-LC-biotin; also called c-erbB-2 extracellular domain; biotinylated c-erbB-2 ECD
# Run description: SPR BIAcore

Binder	koff [s⁻¹]
C6-B1D2 (scFv, Combined B1 and D2 mutations on C6ML3-9) scFv: QVQLLQSGAELKKPGESLKISCKGSGYSFTSYWIAWVRQMPGKGLEYMGLIYPGDSDTKYSPSFQGQVTISVDKSVSTAYLQWSSLKPSDSAVYFCARHDVGYCTDRTCAKWPEWLGVWGQGTLVTVSSGGGGSGGGGSGGGGSQSVLTQPPSVSAAPGQKVTISCSGSSSNIGNNYVSWYQQLPGTAPKLLIYGHTNRPAGVPDRFSGSKSGTSASLAISGFRSEDEADYYCASWDYTLSGWVFGGGTKLTVLG	1e-05
C6-B47D1 (scFv, Combined B47 and D1 mutations on C6ML3-9) scFv: QVQLLQSGAELKKPGESLKISCKGSGYSFTSYWIAWVRQMPGKGLEYMGLIYPGDSDTKYSPSFQGQVTISVDKSVSTAYLQWSSLKPSDSAVYFCARHDVGYCTDRSCAKWPEWLHVWGQGTLVTVSSGGGGSGGGGSGGGGSQSVLTQPPSVSAAPGQKVTISCSGSSSNIGNNYVSWYQQLPGTAPKLLIYGHTNRPAGVPDRFSGSKSGTSASLAISGFRSEDEADYYCASWDYTLSGWVFGGGTKLTVLG	4.8e-05
C6-B47D3 (scFv, Combined B47 and D3 mutations on C6ML3-9) scFv: QVQLLQSGAELKKPGESLKISCKGSGYSFTSYWIAWVRQMPGKGLEYMGLIYPGDSDTKYSPSFQGQVTISVDKSVSTAYLQWSSLKPSDSAVYFCARHDVGYCTDRSCAKWPEWLDNWGQGTLVTVSSGGGGSGGGGSGGGGSQSVLTQPPSVSAAPGQKVTISCSGSSSNIGNNYVSWYQQLPGTAPKLLIYGHTNRPAGVPDRFSGSKSGTSASLAISGFRSEDEADYYCASWDYTLSGWVFGGGTKLTVLG	3.2e-05
